Value type: pIC50
For clarity, pIC50 is expressed as the negative log10 of concentration in mol/L.

Case CCN1C(=O)c2[nH]c(Cc3ccccc3)nc2N2C[C@@H](C(C)C)N=C12 , cGMP-specific 3',5'-cyclic phosphodiesterase (Homo sapiens, UniProt O76074), pIC50 recorded as 7.55

Tested on cGMP-specific 3',5'-cyclic phosphodiesterase (Homo sapiens, UniProt O76074): CCC[C@@H]1CN2C(=N1)N(CC)C(=O)c1nc(Cc3ccccc3)n(Cc3ccccc3)c12 . Observed pIC50: 7.46

Known value: cGMP-specific 3',5'-cyclic phosphodiesterase (Homo sapiens, UniProt O76074) pIC50 of the molecule CCN1C(=O)c2c(nc(C#Cc3ccccc3)n2Cc2ccc(OC)cc2)N2C[C@@H](Cc3ccccc3)N=C12 equals 7.85

With cGMP-specific 3',5'-cyclic phosphodiesterase (Homo sapiens, UniProt O76074) as the test system, CCN1C(=O)c2c(nc(C#Cc3ccccc3)n2Cc2ccccc2)N2C[C@@H](Cc3ccccc3)N=C12 showed pIC50 of 7.40
